# maps each entry to its TGI
Test system: OVCAR-5 ovarian
procedure.text: NCI tumour cell line growth inhibition, 48 h

{"molecule": "Cc1ccc2c(=O)c(-c3n[nH]c(=S)s3)c[nH]c2n1", "measured": "> 100 µM"}
{"molecule": "CN1C(=O)N(C)C2(CCN(CCCCCCF)CC2)C1=O", "measured": "> 100 µM"}
{"molecule": "CC1CC[C@@]2(OC1)OC1C[C@H]3[C@@H]4CCC5CC(O)CC[C@]5(C)[C@H]4C/C(=N\\N(C)C)[C@]3(C)C1[C@@H]2C (stereo partly specified)", "measured": "62.2 µM"}
{"molecule": "C=CCCC(=O)N1C=CC(=O)[C@H](O)[C@@H]1/C=C/c1ccccc1", "measured": "> 32.5 µM"}

Exercise: Report TGI for O=P1(c2ccccc2)C2=CCC=CC2C(c2ccccc2)N1Cc1ccccc1 (stereo unspecified) tested on OVCAR-5 ovarian.
Solution: > 100 µM

Exercise: I'm curious: which TGI was measured for C/C=C1\CC(C(=O)OCC)CCCCCCCCCCC1=O (stereo unspecified) tested on OVCAR-5 ovarian?
Solution: > 100 µM

Exercise: What value of TGI on OVCAR-5 ovarian does COc1cc([C@@H]2c3cc4c(cc3C[C@H]3COC(=O)[C@@H]32)OCO4)cc2c1OCO2 have?
Solution: > 100 µM

====

Test system: OVCAR-5 ovarian
procedure.text: NCI tumour cell line growth inhibition, 48 h
The reader will find reported TGI values listed item by item below.
Report only the number, with the unit µM understood.

Record excerpt, results attached:
{"smiles": "CCN(CC)CCNc1ccc2ncn3c4cc(=O)ccc4c(O)c1c23", "system.name": "OVCAR-5 ovarian", "readout": "TGI", "measured": 32.5}
{"smiles": "CCCCNC(=S)Nc1nc(C(=O)NNC(=O)c2ccccc2)cs1", "system.name": "OVCAR-5 ovarian", "readout": "TGI", "measured": 35}
{"smiles": "COc1ccc(C[C@@H]2OC3(C=CC(=O)C=C3)O[C@H]2Cc2ccc(OC)cc2)cc1", "system.name": "OVCAR-5 ovarian", "readout": "TGI", "measured": 2.05}
{"smiles": "N#C/C(=C\\c1ccccc1Br)C(=O)c1ccccc1", "system.name": "OVCAR-5 ovarian", "readout": "TGI", "measured": 99.1}
{"smiles": "CCCCOc1ccc(/C=N/Nc2cc(C)nc3ccc(Cl)cc23)cc1", "system.name": "OVCAR-5 ovarian", "readout": "TGI", "measured": 3.24}

Now look at this one.
Exercise: Which TGI is listed for Cn1ncc(-c2ccc3c(=O)[nH]nc(CN)c3c2)c1-c1c(F)cc2ccccc2c1C#N ?
Solution: 29.4

====

# TGI annotations
System: SF-539 CNS
procedure.text: NCI tumour cell line growth inhibition, 48 h

Some compounds with known TGI results, for comparison:
{"smiles": "COc1cc2c(cc1OCCCCCOc1cc3c(cc1OC)C(=O)N1CCC[C@H]1CN3)N=C[C@@H]1CCCN1C2=O", "TGI": "20.4 µM"}
{"smiles": "CCN(CC)CCC(=O)c1ccc(Oc2ccc(F)cc2)cc1", "TGI": "31.8 µM"}
{"smiles": "CC(C)c1cccc(C(C)C)c1OS(=O)(=O)NC(=O)OC(C(F)(F)F)C(F)(F)F", "TGI": "> 100 µM"}
{"smiles": "COc1ccc2nc3cccc(C(=O)NCCN(C)C)c3nc2c1", "TGI": "8.8 µM"}

Would you kindly look at the next entry?
Exercise: Need TGI, item CC(=O)CC(=O)/C=C/c1cccs1
Solution: > 100 µM

====

System: UO-31 renal
procedure.text: NCI tumour cell line growth inhibition, 48 h
Each entry below carries its recorded TGI.
Unit µM implied. Number only.

Some solved entries appear below for comparison.
{"molecule": "CC(=O)OCC1OC(N2C(S)=C(C#N)C(c3ccco3)C(C(C)=O)=C2c2ccccc2)C(OC(C)=O)C(OC(C)=O)C1OC(C)=O (stereo not given)", "system.name": "UO-31 renal", "measurement.units": "µM", "measured": 91.4}
{"molecule": "Cc1cc(S(=O)(=O)Nc2nc3cc(Cl)ccc3o2)c(SCc2ccccc2)cc1Cl", "system.name": "UO-31 renal", "measurement.units": "µM", "measured": 48.5}

Exercise: I am curious: what TGI value has been reported for Brc1cccc[n+]1-c1ccc2cc(-[n+]3ccccc3Br)ccc2c1 ?
Solution: 38.5

Exercise: Please give the measured TGI for this molecule: O=C(NCCCCOCC#Cc1ccccc1C#CCS(=O)(=O)c1ccccc1)c1cc2ccccc2[nH]1
Solution: 11.8

Exercise: Given the entry O=C1c2cc([N+](=O)[O-])sc2C(=O)c2ccsc21 , report its measured TGI.
Solution: 2.59

====

Test system: HS 578T breast
procedure.text: NCI tumour cell line growth inhibition, 48 h
# TGI listing for each entry below

{"compound": "OC(COc1cccc2ccccc12)CN1CCN(c2ccccc2Cl)CC1 (stereo not given)", "TGI": "58 µM"}
{"compound": "Cc1c(C(=O)O[C@H]2[C@@H]3[C@H](C)CC[C@H]3[C@]3(C)O[C@@]2(C2CCCCC2)C[C@H]3OC(=O)CO)ccc2ccccc12", "TGI": "0.142 µM"}
{"compound": "Cc1sc2nc3n(c(=O)c2c1C)N=C(c1ccc([N+](=O)[O-])cc1)CS3", "TGI": "> 100 µM"}
{"compound": "CC(C)(C)C(=O)OCc1nc2cc3c(cc2c(=O)[nH]1)CCC3=O", "TGI": "> 100 µM"}
{"compound": "C#CCOC(=O)C(N)CCSC (stereo not given)", "TGI": "> 100 µM"}

Exercise: // lookup TGI for COc1ccc(/C=N/N=C(\[O-])c2ccncc2)cc1F.COc1ccc(/C=N\N=C(/[O-])c2ccncc2)cc1F.[Cu+2]
Solution: 60 µM

Exercise: Given the entry O=S(=O)(O)ONC1=NCCN1 , report its measured TGI.
Solution: > 100 µM

Exercise: Reported TGI, compound CCCCCCNC(=O)Oc1ccc(/C(=C(\C)c2ccccc2)c2ccc(OCCN(CC)CC)cc2)cc1 : ____
Solution: 11.7 µM

Exercise: Value lookup for TGI; key = COc1ccc(N2C(=O)C3CC4=CC(=O)C[C@H]4[C@H]32)cc1 (stereo not given in full)
Solution: > 100 µM

Exercise: Field request: TGI | item: CN1B(c2ccccc2)N(C)C(=O)N(C)C1=O
Solution: > 100 µM

====

Test system: SF-268 CNS
procedure.text: NCI tumour cell line growth inhibition, 48 h
readout: TGI

Answered examples (5):
{"molecule": "CC1CN=C(c2ccc(COc3ccc(C4=NCC(C)N4)cc3)cc2)N1 (configuration not stated)", "TGI": "> 100 µM"}
{"molecule": "COc1cc(C=O)cc(C=Nc2ccc(S(N)(=O)=O)cc2)c1O", "TGI": "39.2 µM"}
{"molecule": "CN(C)CCNc1nc2ccccc2c2c(=O)c3ccccc3sc12", "TGI": "8.82 µM"}
{"molecule": "Cc1c(C(=O)O[C@H]2[C@@H]3[C@H](C)CC[C@H]3[C@]3(C)O[C@@]2(C2CCCCC2)C[C@H]3OC(=O)CO)ccc2ccccc12", "TGI": "11.8 µM"}
{"molecule": "COc1cc(/C=N\\O)nc(-c2ccccn2)c1", "TGI": "> 100 µM"}

Exercise: Given the entry CN(C)CCn1nc(N)c2nc3cc(C(F)(F)F)ccc3nc21 , report its measured TGI.
Solution: > 100 µM

Exercise: // TGI lookup, key: CCCC1(N)CC(OC)OC(C)C1O (configuration not stated)
Solution: > 100 µM

Exercise: Reported TGI for COc1cccc(C2=C(c3cn(C)c4cccc(OC)c34)C(=O)NC2=O)c1 : what is it?
Solution: > 25 µM

====

Test system: OVCAR-3 ovarian
procedure.text: NCI tumour cell line growth inhibition, 48 h
readout: TGI (µM)
State the answer as a number, implicitly in µM.

{"smiles": "Cc1c(C(=O)O[C@H]2[C@@H]3[C@H](C)CC[C@H]3[C@]3(C)O[C@@]2(C2CCCCC2)C[C@H]3OC(=O)CO)ccc2ccccc12", "TGI (µM)": 14.4}

From here, focus on the item given below.
Exercise: So what does the record say about TGI for CCOc1cc(C(C)(C)C)ccc1C1=N[C@@](C)(c2ccc(Cl)cc2)[C@@](C)(c2ccc(Cl)cc2)N1C(=O)N1CCN(CCS(C)(=O)=O)CC1 ?
Solution: 9.33

====

Tested on: 786-0 renal
procedure.text: NCI tumour cell line growth inhibition, 48 h
Item-by-item account of TGI

Answered examples (10):
{"molecule": "CCCCOc1ccc(/C=N/Nc2cc(C)nc3ccc(Cl)cc23)cc1", "system.name": "786-0 renal", "TGI": "3.76 µM"}
{"molecule": "Cc1cccc(NC2=NCCO2)c1Cl", "system.name": "786-0 renal", "TGI": "> 100 µM"}
{"molecule": "OC(COc1cccc2ccccc12)CN1CCN(c2ccccc2Cl)CC1 (stereo unspecified)", "system.name": "786-0 renal", "TGI": "30.4 µM"}
{"molecule": "COc1ccc(C(=O)O/N=C2/CCC/C2=C\\c2ccccc2)cc1", "system.name": "786-0 renal", "TGI": "> 100 µM"}
{"molecule": "OCC(O)C(O)C(O)C(O)/C=N/Nc1nc(O)c(/C=C2\\C=Nc3ccccc32)[nH]1 (stereo unspecified)", "system.name": "786-0 renal", "TGI": "> 100 µM"}
{"molecule": "CN1B(c2ccccc2)N(C)C(=O)N(C)C1=O", "system.name": "786-0 renal", "TGI": "> 100 µM"}
{"molecule": "COc1cc2c(c(OC)c1OC)-c1ccc(SC)cc1C(=O)CC2", "system.name": "786-0 renal", "TGI": "> 100 µM"}
{"molecule": "O=[N+]([O-])c1ccc2ncccc2c1CCc1c([N+](=O)[O-])ccc2ncccc12", "system.name": "786-0 renal", "TGI": "> 100 µM"}
{"molecule": "O=C(CC(=O)c1ccccc1)c1ccccc1", "system.name": "786-0 renal", "TGI": "43.6 µM"}
{"molecule": "NS(=O)(=O)c1ccc(NC(=O)Nc2ccccc2F)cc1", "system.name": "786-0 renal", "TGI": "> 100 µM"}

Exercise: Any idea what its TGI is? The molecule is NC(=O)N/N=C(/c1nc2ccc([N+](=O)[O-])cc2[nH]c1=O)C(O)c1ccco1 (stereo unspecified)
Solution: > 100 µM
